# System Tested: PIM 3 (Homo sapiens, UniProt Q86V86)
Measured Metric: pKi
The quantity pKi is defined as the negative base-10 logarithm of the molar concentration.

Req: Find the measured pKi: item CN1CCC(CNc2ccc3ncc(-c4cccc(OC(F)(F)F)c4)n3n2)CC1 [Compound A, reference compound] , target or system PIM 3 (Homo sapiens, UniProt Q86V86).
Resp: 7.70

Continue with the next compound.
Req: Find the measured pKi: item `CC(C)(O)[C@H]1CC[C@H](Nc2ccc3ncc(-c4cccc(C(F)(F)F)c4)n3n2)CC1` , target or system PIM 3 (Homo sapiens, UniProt Q86V86).
Resp: 7.38

====

# System Tested: PIM 2 (Homo sapiens)
# Sequence (Q9P1W9 whole entry, species assumed): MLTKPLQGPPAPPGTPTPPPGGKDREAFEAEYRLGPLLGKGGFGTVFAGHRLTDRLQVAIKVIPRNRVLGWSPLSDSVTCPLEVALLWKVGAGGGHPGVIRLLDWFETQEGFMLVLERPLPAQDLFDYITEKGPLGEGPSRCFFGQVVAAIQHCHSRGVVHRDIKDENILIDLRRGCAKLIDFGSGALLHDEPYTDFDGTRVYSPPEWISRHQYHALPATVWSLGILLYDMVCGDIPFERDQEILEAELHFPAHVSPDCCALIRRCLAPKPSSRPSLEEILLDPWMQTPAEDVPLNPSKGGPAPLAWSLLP
# Assay Info: PIM kinase biochemical profile (Ki)
Measured Metric: pKi
The quantity pKi is defined as the negative base-10 logarithm of the molar concentration.

Req: Reported pKi for `CC(C)(O)[C@H]1CC[C@H](Nc2ccc3ncc(-c4cccc(C(F)(F)F)c4)n3n2)CC1` : what is it?
Resp: 6.62

====

# System Tested: Flt3 (Homo sapiens)
# Sequence (P36888 27-993, species assumed): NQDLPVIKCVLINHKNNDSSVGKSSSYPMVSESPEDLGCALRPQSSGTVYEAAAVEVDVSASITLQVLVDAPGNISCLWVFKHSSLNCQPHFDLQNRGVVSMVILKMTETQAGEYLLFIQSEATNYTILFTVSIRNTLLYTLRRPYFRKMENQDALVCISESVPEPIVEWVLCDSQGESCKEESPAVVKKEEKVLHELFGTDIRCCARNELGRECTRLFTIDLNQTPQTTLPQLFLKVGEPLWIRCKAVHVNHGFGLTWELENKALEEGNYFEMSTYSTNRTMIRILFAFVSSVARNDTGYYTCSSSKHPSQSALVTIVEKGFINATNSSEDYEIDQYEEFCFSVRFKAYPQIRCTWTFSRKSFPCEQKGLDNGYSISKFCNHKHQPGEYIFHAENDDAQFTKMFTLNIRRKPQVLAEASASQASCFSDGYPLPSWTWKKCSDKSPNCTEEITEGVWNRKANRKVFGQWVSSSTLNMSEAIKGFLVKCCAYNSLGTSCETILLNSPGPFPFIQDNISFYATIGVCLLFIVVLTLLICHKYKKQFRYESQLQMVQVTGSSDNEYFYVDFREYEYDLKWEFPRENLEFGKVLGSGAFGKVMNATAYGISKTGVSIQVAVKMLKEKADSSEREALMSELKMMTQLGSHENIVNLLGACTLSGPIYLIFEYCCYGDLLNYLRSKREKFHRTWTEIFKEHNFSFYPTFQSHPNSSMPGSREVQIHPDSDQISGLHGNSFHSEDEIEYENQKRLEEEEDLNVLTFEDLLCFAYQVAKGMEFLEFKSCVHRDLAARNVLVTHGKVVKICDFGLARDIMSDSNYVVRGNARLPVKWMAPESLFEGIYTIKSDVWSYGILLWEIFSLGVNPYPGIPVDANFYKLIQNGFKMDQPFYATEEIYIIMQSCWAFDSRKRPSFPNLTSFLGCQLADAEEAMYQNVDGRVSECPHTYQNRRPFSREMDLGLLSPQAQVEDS
Measured Metric: pIC50
The quantity pIC50 is defined as the negative base-10 logarithm of the molar concentration.

Req: Find the measured pIC50: item `CC(C)(O)[C@H]1CC[C@H](Nc2ccc3ncc(-c4cccc(C(F)(F)F)c4)n3n2)CC1` , target or system Flt3 (Homo sapiens).
Resp: 6.55

Continuing:
Req: Find the measured pIC50: item CN1CCC(CNc2ccc3ncc(-c4cccc(OC(F)(F)F)c4)n3n2)CC1 [Compound A, reference compound] , target or system Flt3 (Homo sapiens).
Resp: 8.52

====

# System Tested: PIM 1 (Homo sapiens)
# Sequence (P11309 whole entry, species assumed): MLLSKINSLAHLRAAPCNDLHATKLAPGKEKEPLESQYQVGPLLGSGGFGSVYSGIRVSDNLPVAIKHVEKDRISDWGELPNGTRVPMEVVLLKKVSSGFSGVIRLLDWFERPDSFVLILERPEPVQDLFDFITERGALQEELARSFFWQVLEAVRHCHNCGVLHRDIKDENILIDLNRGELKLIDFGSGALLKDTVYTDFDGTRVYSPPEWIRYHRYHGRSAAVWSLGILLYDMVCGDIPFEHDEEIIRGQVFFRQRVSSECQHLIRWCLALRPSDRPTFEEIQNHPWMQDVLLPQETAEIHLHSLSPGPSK
Measured Metric: Ki (nM)
Your answer is read as nM, so omit the unit and give the number.

Req: Reported Ki for `CC(C)(O)[C@H]1CC[C@H](Nc2ccc3ncc(-c4cccc(C(F)(F)F)c4)n3n2)CC1` : what is it?
Resp: 5

Attribution: patent US20250082634A1
